# Dmax listing for each entry below
Biological target: KRAS(G12D) (Homo sapiens, UniProt P01116, G12D)
Construct: endogenous in cells; host or cells: SW1990
Experiment: SW1990 WB assay (degradation DC50, Dmax)
Type: cell-based
Conditions: Western blot, SW1990 cells

{"compound": "C#Cc1c(F)ccc2cc(O)cc(-c3ncc4c(N5CC6CCC(C5)N6C(=O)CC)nc(OCC5(CN6CCN(CC7CCN(c8ccc9c(c8)CN(C8CCC(=O)NC8=O)C9=O)CC7)CC6)CC5)nc4c3F)c12 (stereo not drawn) [Compound 91]", "measured_attribute": "Dmax", "observed_result": "< 10%"}
{"compound": "C#Cc1c(F)ccc2cc(O)cc(-c3ncc4c(N5CC6CCC(C5)N6)nc(OCC5(CN6CCN(C7CCN(c8ccc9c(c8)CN(C8CCC(=O)NC8=O)C9=O)CC7)CC6)CC5)nc4c3F)c12 (stereo not drawn) [Compound 104]", "measured_attribute": "Dmax", "observed_result": "> 50%"}

Read the next record carefully.
[Q] Entry under review: C#Cc1cccc2cc(O)cc(-c3ncc4c(N5CC6CCC(C5)N6)nc(OCC5(CN6CCN(CC7CCN(c8ccc9c(c8)CN(C8CCC(=O)NC8=O)C9=O)CC7)[C@@H](C7CC7)C6)CC5)nc4c3F)c12 (stereo partly drawn) [Compound 96] . Reported Dmax?
[A] 10 to 50%

###

# GI50 listing for each entry below
Target: BA/F3-KRAS(G12D) murine pro-B cell line stably expressing KRAS(G12D) (Homo sapiens, UniProt P01116, G12D, cells depend on it)
Sequence (P01116 whole entry G12D): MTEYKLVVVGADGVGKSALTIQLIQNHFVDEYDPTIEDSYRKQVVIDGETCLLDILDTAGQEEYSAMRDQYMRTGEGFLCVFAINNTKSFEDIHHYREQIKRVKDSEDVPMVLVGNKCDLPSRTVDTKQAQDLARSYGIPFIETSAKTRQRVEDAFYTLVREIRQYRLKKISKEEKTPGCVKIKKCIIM
Test: CellTiter-Glo cancer cell line proliferation assay, BA/F3-KRAS(G12D)
Assay type: cell-based
Settings: 24 hr, read-out: BAF3 at 24 hrs, IC50
Where a name gives a salt, the structure may show the parent alone.

{"molecule": "C#Cc1cccc2cccc(-c3ncc4c(N5CC6CCC(C5)N6)nc(OC[C@@H]5CC[C@H](CN6CCN(CC7CCN(c8ccc9c(c8)C(=O)N(C8CCC(=O)NC8=O)C9=O)CC7)CC6)N5C)nc4c3F)c12 (some centres unmarked) [Compound 13, hydrochloride]", "GI50": "0.1 to 1 µM"}

[Q] Entry under review: CN1C[C@@H](N2CCC(C(=O)N3CCN(c4ccc5c(c4)C(=O)N(C4CCC(=O)NC4=O)C5=O)CC3)CC2)C[C@H]1COc1nc(N2CC3CCC(C2)N3)c2cnc(-c3cccc4ccccc34)c(F)c2n1 (some centres unmarked) [Compound 19, formate] . Reported GI50?
[A] > 1 µM

###

Biological target: KRAS(G12D)/SOS1 (Homo sapiens, UniProt P01116, G12D)
Sequence (P01116 1-188 isoform P01116-2 G12D): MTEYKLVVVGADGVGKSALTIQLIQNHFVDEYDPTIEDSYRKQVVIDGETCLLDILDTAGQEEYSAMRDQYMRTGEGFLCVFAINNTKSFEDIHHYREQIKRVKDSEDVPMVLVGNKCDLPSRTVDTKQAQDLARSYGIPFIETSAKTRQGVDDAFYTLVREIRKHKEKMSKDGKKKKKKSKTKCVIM
Assay: KRAS(G12D)/SOS1 homogeneous time-resolved fluorescence (HTRF) assay
Conditions: absence of GTP, 4° C. for 3 hr
Method: The test compound was mixed and incubated with reaction components, incubated in a sealed plate at 4° C. for 3 hr and fluorescence was measured using a PerkinElmer Envision plate reader.
Counter-ions that a name gives are not always drawn.
# IC50 listing for each entry below

Here is how some compounds turned out for IC50.
{"compound": "C#Cc1c(F)ccc2cc(O)cc(-c3nc(OC)c4c(N5CC6CCC(C5)N6)nc(OCC5(CN6CCN(C7CCN(c8ccc9c(c8)C(=O)N(C8CCC(=O)NC8=O)C9=O)CC7)CC6)CC5)nc4c3F)c12 (centres unmarked) [Compound 115]", "IC50": "< 0.1 µM"}
{"compound": "COc1nc(-c2cc(O)cc3ccccc23)c(F)c2nc(OCC3(CN4CCN(CC5CCN(c6ccc7c(c6)C(=O)N(C6CCC(=O)NC6=O)C7=O)CC5)CC4)CC3)nc(N3CC4CCC(C3)N4)c12 (centres unmarked) [Compound 66]", "IC50": "< 0.1 µM"}
{"compound": "C#Cc1cccc2cc(O)cc(-c3ncc4c(N5CC6CCC(C5)N6)nc(OCC5(CN6CCN(CC7CCN(c8ccc9c(c8)C(=O)N(C8CCC(=O)NC8=O)C9=O)CC7)CC6)CC5)nc4c3F)c12 (centres unmarked) [Compound 56]", "IC50": "< 0.1 µM"}

[Q] Param readout= IC50; system= KRAS(G12D)/SOS1 (Homo sapiens, UniProt P01116, G12D); entry= C#Cc1cccc2cccc(-c3ncc4c(N5CC6CCC(C5)N6)nc(OC[C@@H]5C[C@H](N6CCN(C(=O)C7CCN(c8ccc9c(c8)C(=O)N(C8CCC(=O)NC8=O)C9=O)CC7)CC6)CN5C)nc4c3F)c12 (some centres unmarked) [Compound 8, hydrochloride] ; returns value.
[A] < 0.1 µM

[Q] Lookup CN1C[C@H](N2CCC(C(=O)Nc3ccc4c(c3)CN(C3CCC(=O)NC3=O)C4=O)CC2)C[C@@H]1COc1nc(N2CC3CCC(C2)N3)c2cnc(-c3cccc4cccc(Cl)c34)c(F)c2n1 (some centres unmarked) [Compound 49]
[A] 0.1 to 1 µM

###

Target: BA/F3-KRAS(G12D) murine pro-B cell line stably expressing KRAS(G12D) (Homo sapiens, UniProt P01116, G12D, cells depend on it)
Test: CellTiter-Glo cancer cell line proliferation assay, BA/F3-KRAS(G12D)
Type: cell-based
Conditions: 24 hr, read-out: BAF3 at 24 hrs, IC50
Where a name gives a salt, the structure may show the parent alone.
measured_attribute: GI50

Here is how some molecules turned out for GI50.
{"molecule": "C#Cc1cccc2cccc(-c3ncc4c(N5CC6CCC(C5)N6)nc(OCCN5CCN(Cc6ccc7c(c6)C(=O)N(C6CCC(=O)NC6=O)C7=O)CC5)nc4c3F)c12 (centres unmarked) [Compound 2, hydrochloride]", "GI50": "> 1000 nM"}
{"molecule": "CN1C[C@@H](N2CCC(C(=O)Nc3ccc4c(c3)C(=O)N(C3CCC(=O)NC3=O)C4=O)CC2)C[C@H]1COc1nc(N2CC3CCC(C2)N3)c2cnc(-c3cccc4cccc(Cl)c34)c(F)c2n1 (some centres unmarked) [Compound 10, formate]", "GI50": "> 1000 nM"}
{"molecule": "C#Cc1cccc2cccc(-c3ncc4c(N5CC6CCC(C5)N6)nc(OCC5(CN6CCN(Cc7ccc8c(c7)C(=O)N(C7CCC(=O)NC7=O)C8=O)CC6)CC5)nc4c3F)c12 (centres unmarked) [Compound 28, formate]", "GI50": "> 1000 nM"}

[Q] Entry under review: C#Cc1cccc2cccc(-c3ncc4c(N5CC6CCC(C5)N6)nc(OCC5(CN6CCN(CC7CCN(c8cccc9c8C(=O)N(C8CCC(=O)NC8=O)C9=O)CC7)CC6)CC5)nc4c3F)c12 (centres unmarked) [Compound 29, formate] . Reported GI50?
[A] 100 to 1000 nM

[Q] Lookup C#Cc1cccc2cccc(-c3ncc4c(N5CC6CCC(C5)N6)nc(OCCN5CCN(C(=O)C6CCN(c7ccc8c(c7)CN(C7CCC(=O)NC7=O)C8=O)CC6)CC5)nc4c3F)c12 (centres unmarked) [Compound 17, formate]
[A] > 1000 nM

###

Biological target: KRAS(G12D)/SOS1 (Homo sapiens, UniProt P01116, G12D)
Experiment: KRAS(G12D)/SOS1 homogeneous time-resolved fluorescence (HTRF) assay
Conditions: absence of GTP, 4° C. for 3 hr
Structures can show the parent of a compound that is named as a salt.
measured_attribute: IC50

{"molecule": "CN1C[C@H](N2CCN(CC3CCN(c4cccc5c4C(=O)N(C4CCC(=O)NC4=O)C5=O)CC3)CC2)C[C@@H]1COc1nc(N2CC3CCC(C2)N3)c2cnc(-c3cc(O)cc4ccccc34)c(F)c2n1 (stereo partly drawn) [Compound 35]", "tgt": "KRAS(G12D)/SOS1 (Homo sapiens, UniProt P01116, G12D)", "measured_attribute": "IC50", "observed_result": "< 100 nM"}
{"molecule": "C#Cc1cccc2cc(O)cc(-c3ncc4c(N5CC6CCC(C5)N6)nc(OCC5(CN6CCN(CC7CCN(c8ccc9c(c8)CN(C8CCC(=O)N(C)C8=O)C9=O)CC7)CC6)CC5)nc4c3F)c12 (stereo not drawn) [Compound 71]", "tgt": "KRAS(G12D)/SOS1 (Homo sapiens, UniProt P01116, G12D)", "measured_attribute": "IC50", "observed_result": "< 100 nM"}
{"molecule": "C#Cc1cccc2cccc(-c3ncc4c(N5CC6CCC(C5)N6)nc(OCCN5CCN(Cc6ccc7c(c6)C(=O)N(C6CCC(=O)NC6=O)C7=O)CC5)nc4c3F)c12 (stereo not drawn) [Compound 2, hydrochloride]", "tgt": "KRAS(G12D)/SOS1 (Homo sapiens, UniProt P01116, G12D)", "measured_attribute": "IC50", "observed_result": "< 100 nM"}

[Q] Param readout= IC50; system= KRAS(G12D)/SOS1 (Homo sapiens, UniProt P01116, G12D); entry= C#Cc1c(F)ccc2cc(O)cc(-c3nc(OC)c4c(N5CC6CCC(C5)N6C(=O)C(F)(F)F)nc(OCC5(CN6CCN(CC7CCN(c8ccc9c(c8)CN(C8CCC(=O)NC8=O)C9=O)CC7)CC6)CC5)nc4c3F)c12 (stereo not drawn) [Compound 93] ; returns value.
[A] < 100 nM

[Q] Lookup C#Cc1cccc2cc(O)cc(-c3ncc4c(N5CC6CCC(C5)N6)nc(OCC5(CN6CCN(CC7CCN(c8ccc9c(c8)CN(C8CCC(=O)NC8=O)C9=O)CC7)[C@@H](C7CC7)C6)CC5)nc4c3F)c12 (stereo partly drawn) [Compound 96]
[A] < 100 nM

[Q] Lookup C#Cc1cccc2cccc(-c3ncc4c(N5CC6CCC(C5)N6)nc(OCC5(CN6CCN(CC7CCN(c8ccc9c(c8)C(=O)N(C8CCC(=O)NC8=O)C9=O)CC7)CC6)CC5)nc4c3F)c12 (stereo not drawn) [Compound 48]
[A] < 100 nM

[Q] Lookup O=C1CCC(N2C(=O)c3ccc(CN4CCN([C@H]5CN6CCC[C@@]6(COc6nc(N7CC8CCC(C7)N8)c7cnc(-c8cc(O)cc9ccccc89)c(F)c7n6)C5)CC4)cc3C2=O)C(=O)N1 (stereo partly drawn) [Compound 50]
[A] < 100 nM

[Q] Lookup C#Cc1c(F)ccc2cc(O)cc(-c3ncc4c(N5CC6CCC(C5)N6)nc(OCC5(CN6CCC(C7CCN(c8ccc9c(c8)CN(C8CCC(=O)NC8=O)C9=O)CC7)CC6)CC5)nc4c3F)c12 (stereo not drawn) [Compound 102]
[A] < 100 nM

[Q] Lookup CN1C[C@H](N2CCC(C(=O)N3CCN(c4ccc5c(c4)C(=O)N(C4CCC(=O)NC4=O)C5=O)CC3)CC2)C[C@@H]1COc1nc(N2CC3CCC(C2)N3)c2cnc(-c3cc(O)cc4ccccc34)c(F)c2n1 (stereo partly drawn) [Compound 46]
[A] < 100 nM
